Hey, just so you know, these numbers are from PubChem BioAssay (NCI).

Answer each item with its documented TGI.
Test system: SK-OV-3 ovarian
experimentalDetails: NCI tumour cell line growth inhibition, 48 h
Where a SMILES comes first, the peptide text is derived from it. [ ]: non-standard residue; d: D form. The star is where a group is joined. ξ: configuration not given here. NMeY = CN[C@@H](Cc1ccc(O)cc1)C(=O)O; Cbz = O=C(OCc1ccccc1)*; ξA = CC(N)C(=O)O

COc1ccc(C[C@@H](C(=O)N[C@@H](C)C(N)=O)N(C)C(=O)[C@@H]2CCCN2C(=O)[C@H](CC(C)C)NC(=O)C(C)NC(=O)OCc2ccccc2)cc1 (some centres undefined) (Cbz-[ξA]LP[NMeY](Me)A-NH2) = > 100 µM
Cc1cn2c(/C=N/N=C(N)N)c(-c3ccc([N+](=O)[O-])cc3)nc2s1 = 3.14 µM
O=C(c1ccccc1)n1cc(/C=C/[N+](=O)[O-])c2ccccc21 = > 100 µM

Now let's try a different one.
Req: Tell me reported TGI for C=CC(C)(C)NC(C(=O)N1CCC[C@H]1c1nc(-c2nc(C(=O)OCC=C(C)C)c(C)o2)c(C)o1)C(C)C (some centres undefined) , tested with SK-OV-3 ovarian.
Resp: > 100 µM
